All figures here come from PubChem BioAssay AID2060910.

molecules and their reported viability, T/C
- Test system: 242566-281-R-J2-PDC complex spheroid viability;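 note: spheroids exposed to compound for 7 days before readout; 100% = DMSO vehicle control wells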
- assayDetails: Anticancer human tumor 242566-281-R-J2-PDC patient-derived pancreatic carcinoma cell line growth inhibition [RAS]
- conditionsUsed: second compound 0.1 µM; first compound 1 µM; stronger effect = lower value

molecule: Nc1ccn(C2OC(CO)C(O)C2(F)F)c(=O)n1 (stereo unspecified) + C#Cc1c(F)ccc2cc(O)cc(-c3ncc4c(N5CC6CCC(C5)N6)nc(OCC56CCCN5CC(F)C6)nc4c3F)c12
unitAbbreviation: %
viability, T/C: 39.8
--
molecule: CCC(CC)c1cc(NC2CCC(N)C2)n2nccc2n1 (stereo unspecified) + C=CC(=O)N1CCN(c2nc(OCC3CCCN3C)nc3c(F)c(-c4nc(N)cc(C)c4C(F)(F)F)c(Cl)cc23)C(C)C1
unitAbbreviation: %
viability, T/C: 96.5
--
molecule: CC(=O)OC12COC1CC(O)C1(C)C(=O)C(O)C3=C(C)C(OC(=O)C(O)C(NC(=O)OC(C)(C)C)c4ccccc4)CC(O)(C(OC(=O)c4ccccc4)C21)C3(C)C (stereo unspecified) + C#Cc1c(F)ccc2cc(O)cc(-c3ncc4c(N5CC6CCC(C5)N6)nc(OCC56CCCN5CC(F)C6)nc4c3F)c12
unitAbbreviation: %
viability, T/C: 40.9
--
molecule: NC1c2ccccc2OC12CCN(c1cnc3c(N4CCCc5ncccc54)n[nH]c3n1)CC2 (stereo unspecified) + C#Cc1c(F)ccc2cc(O)cc(-c3ncc4c(N5CC6CCC(C5)N6)nc(OCC56CCCN5CC(F)C6)nc4c3F)c12
unitAbbreviation: %
viability, T/C: 28.4
--
molecule: CC(C)NCC(C(=O)N1CCN(c2ncnc3c2C(C)CC3O)CC1)c1ccc(Cl)cc1 (stereo unspecified) + C=CC(=O)N1CCN(c2nc(OCC3CCCN3C)nc3c(F)c(-c4nc(N)cc(C)c4C(F)(F)F)c(Cl)cc23)C(C)C1
unitAbbreviation: %
viability, T/C: 89.1
--
molecule: CCN1CCN(Cc2ccc(Nc3ncc(F)c(-c4cc(F)c5nc(C)n(C(C)C)c5c4)n3)nc2)CC1 + C#Cc1c(F)ccc2cc(O)cc(-c3ncc4c(N5CC6CCC(C5)N6)nc(OCC56CCCN5CC(F)C6)nc4c3F)c12
unitAbbreviation: %
viability, T/C: 85.2
